This collection of values is drawn from patent US11066693B2.

Test system: MDA-MB-231 human breast cancer cell line
assayProcedure: In vitro cytotoxicity, MTT cell viability assay
Format: cell-based
details: MDA-MB-231 (ER, Her2/neu, PR negative, multi drug resistant), 24 h at 37° C., MTT; read-out: Cytotoxicity evaluated as IC50 value
Procedure: Incubations were conducted for 24 h at 37° C.
pIC50: −log10 of the molar value. Ends that are not written are not given here.
quantityMeasured: pIC50

>>> observedmeasurement("KFAKFAKKFAKFAKKFAKQHWSYGLRPG [EP-100]")
5.26

====

Test system: LNCaP prostate cancer cell line
details: read-out: Cytotoxicity evaluated as IC50 value, 24 h at 37° C., MTT
pIC50: −log10 of the molar value. Ends that are not written are not given here.
quantityMeasured: pIC50

>>> observedmeasurement("KFAKFAKKFAKFAKKFAKQHWSYGLRPG [EP-100]")
5.82

====

System: AN3-CA human endometrial cancer cell line
details: read-out: Cytotoxicity evaluated as IC50 value, 24 h at 37° C., MTT
Ends that are not written are not given here.
quantityMeasured: IC50 (µM)

>>> observedmeasurement("KFAKFAKKFAKFAKKFAKQHWSYGLRPG [EP-100]")
3.3

====

Test system: MDA-MB-4355 breast cancer cell line
details: read-out: Cytotoxicity evaluated as IC50 value; MDA-MB-4355, highest LHRH receptor capacity, 24 h at 37° C., MTT
pIC50: −log10 of the molar value. Ends that are not written are not given here.
quantityMeasured: pIC50

>>> observedmeasurement("KFAKFAKKFAKFAKKFAKQHWSYGLRPG [EP-100]")
6.10
